- system: T1, human GIP receptor (human, UniProt P48546 22-466)
- T1 sequence (looked up): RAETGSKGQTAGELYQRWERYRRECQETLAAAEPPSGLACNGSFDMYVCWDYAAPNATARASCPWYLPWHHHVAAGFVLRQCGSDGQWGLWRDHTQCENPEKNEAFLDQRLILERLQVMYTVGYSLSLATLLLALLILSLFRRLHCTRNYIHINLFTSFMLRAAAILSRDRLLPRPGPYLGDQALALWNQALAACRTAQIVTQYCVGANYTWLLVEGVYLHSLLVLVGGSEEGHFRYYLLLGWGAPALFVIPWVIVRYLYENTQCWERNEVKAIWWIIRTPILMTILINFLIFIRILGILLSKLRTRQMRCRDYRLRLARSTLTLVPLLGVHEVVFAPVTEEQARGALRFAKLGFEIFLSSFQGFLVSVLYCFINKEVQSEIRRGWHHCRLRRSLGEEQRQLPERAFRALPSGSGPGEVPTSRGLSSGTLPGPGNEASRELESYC
- assay.method.text: cell-based or functional assay
Bridge positions count the residues as written; N and C are the ends. Square brackets hold non-standard residues; d marks the D form. Ends that are not written are not given here. * marks the point of attachment. Acetyl(2-(4-imidazolyl)) = O=C(Cc1c[nH]cn1)*; Aib = CC(C)(N)C(=O)O
readout.label: In vitro activity (%) compared with native peptide, vs GIP

{"columns": ["binder", "result"],
 "data": [
  ["{Acetyl(2-(4-imidazolyl))}-[Aib]QGTFTSDYSKYLDEKRQKEFVQWLLNTC (bridge 15-19; numbers in words are those of the source; also: ring between positions 16 and 20, type not given here) [triple agonist of SEQ ID NO: 81]", "< 0.1%"],
  ["H[Aib]QGTFTSDYSKYLCEKRQKEFVQWLLNGGPSSGAPPPSG (bridge 16-20) [triple agonist of SEQ ID NO: 36]", "0.2%"],
  ["H[Aib]QGTFTSDVSSYLLGQAAKQFIAWLVKGGGPSSGAPPPSC (not fully specified) [triple agonist of SEQ ID NO: 3]", "< 0.1%"],
  ["{Acetyl(2-(4-imidazolyl))}-[Aib]QGTFTSDYSKYLDECRAKEFVQWLLDHHPSSGQPPPS (bridge 15-19) [triple agonist of SEQ ID NO: 73]", "3%"],
  ["[Acetyl(2-(4-imidazolyl))]GEGTFISDLSKYMDEQAVQLFVEWLMAGGPSSGAPPPSHG (not fully specified) [triple agonist of SEQ ID NO: 12]", "< 0.1%"]
]}
